IC50, RAC-alpha serine/threonine-protein kinase (Homo sapiens, UniProt P31749), per-entry values.

Use these answered entries as a reference point.
COMPOUND | TARGET_SYSTEM | RESULT
CNCC(Nc1ncnc2c(C(N)=O)cccc12)c1cccc(F)c1 (racemic) | RAC-alpha serine/threonine-protein kinase (Homo sapiens, UniProt P31749) | 15 nM
NC(=O)c1cccc2c(N[C@H](CN3CCC3)c3ccc(Cl)c(F)c3)ncnc12 | RAC-alpha serine/threonine-protein kinase (Homo sapiens, UniProt P31749) | 10 nM
NC(=O)c1cccc2c(N[C@H](CN3CCC3)c3cccc(C(F)(F)F)c3)ncnc12 | RAC-alpha serine/threonine-protein kinase (Homo sapiens, UniProt P31749) | 6 nM

Proceeding to the next compound to report its IC50.
Request: Notebook entry, RAC-alpha serine/threonine-protein kinase (Homo sapiens, UniProt P31749) assay: IC50 of NC(=O)c1cccc2c(N[C@H](CN3CCC3)c3ccc(F)c(C(F)(F)F)c3)ncnc12 = ?
Response: 6 nM

* * *

test: cells; type: cell-based; conditions: Homo sapiens, MDA-MB-468
ENDPOINT_LABEL: IC50 (nM)
Response body: numeric value in nM, unit text excluded.

A selection of reference data follows.
CHEM_SMILES | UNIT_ABBREV | RECORDED_NUMBER
CNC[C@@H](Nc1nc(C)nc2c(C(N)=O)cccc12)c1cccc(F)c1 | nM | 72
CCc1nc(N[C@H](CNC)c2cccc(F)c2)c2cccc(C(N)=O)c2n1 | nM | 183

Request: Please give the measured IC50 for this compound: CNC[C@H](Nc1ncnc2c(C(N)=O)cccc12)c1cccc(F)c1
Response: 702

* * *

A short record of IC50 observed with Ribosomal protein S6 kinase beta-1 (Homo sapiens, UniProt P23443, T412E) follows.
Sequence (P23443 whole entry T412E): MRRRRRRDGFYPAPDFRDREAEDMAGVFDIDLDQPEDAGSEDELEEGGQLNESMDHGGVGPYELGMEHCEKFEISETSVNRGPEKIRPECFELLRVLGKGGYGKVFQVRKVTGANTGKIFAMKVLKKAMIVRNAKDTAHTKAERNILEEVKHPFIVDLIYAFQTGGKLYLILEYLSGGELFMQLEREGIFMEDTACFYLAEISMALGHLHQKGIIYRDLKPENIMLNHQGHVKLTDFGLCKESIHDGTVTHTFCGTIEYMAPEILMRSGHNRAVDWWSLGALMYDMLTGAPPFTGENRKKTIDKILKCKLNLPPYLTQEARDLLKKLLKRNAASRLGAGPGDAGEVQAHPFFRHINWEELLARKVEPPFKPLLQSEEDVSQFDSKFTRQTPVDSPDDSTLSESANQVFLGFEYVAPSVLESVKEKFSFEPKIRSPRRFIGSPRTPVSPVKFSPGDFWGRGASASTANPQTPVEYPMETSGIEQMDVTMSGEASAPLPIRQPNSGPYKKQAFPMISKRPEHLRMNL

Answered examples (2):
CHEM_SMILES | IC50
NC(=O)c1cccc2c(NCc3ccc4c(c3)OCO4)nccc12 | > 10 µM
CN(C)C(=O)c1cccc2c(NCc3ccc4c(c3)OCO4)ncnc12 | > 10 µM

Now turn to the next compound.
Request: I would be grateful if you could share the reported IC50 for c1ccc(CNc2ncnc3ccccc23)cc1 .
Response: > 10 µM

* * *

target: Ribosomal protein S6 kinase beta-1 (Homo sapiens, UniProt P23443, T412E)
ENDPOINT_LABEL: IC50 (nM)
Could you give me the number in nM? Just the number is fine.

Consider the following illustrative entries.
CHEM_SMILES | ENDPOINT_LABEL | RECORDED_NUMBER
NC(=O)c1cccc2c(N[C@H](CN3CCC3)c3cccc(Cl)c3)ncnc12 | IC50 | 1.3
CN(Cc1ccccc1)c1ncnc2c(C(N)=O)cccc12 | IC50 | 973

Shifting focus to the molecule that follows.
Request: State its IC50 on Ribosomal protein S6 kinase beta-1 (Homo sapiens, UniProt P23443, T412E): CNC[C@@H](Nc1nc(C)nc2c(C(N)=O)cccc12)c1cccc(F)c1
Response: 2

* * *

biological target: Ribosomal protein S6 kinase beta-1 (Homo sapiens, UniProt P23443, T412E)
Here, each record is paired with measured IC50 data.

See these solved cases before continuing.
CHEM_SMILES | IC50
COC(=O)c1cccc2c(NCc3ccc4c(c3)OCO4)ncnc12 | > 10 µM
O=C(O)c1cccc2c(NCc3ccc4c(c3)OCO4)ncnc12 | > 10 µM

Attention now turns to another entry.
Request: Which measured IC50 belongs to CNC(=O)c1cccc2c(NCc3ccc4c(c3)OCO4)ncnc12 , tested on Ribosomal protein S6 kinase beta-1 (Homo sapiens, UniProt P23443, T412E)?
Response: > 10 µM
